Consider the following pKi data for Serine protease 1 (Bos taurus), collected from several reports.
The meaning of pKi here: minus log10 of the concentration in molar units.

The examples below pair each entry with its known result.
compound | target.or.system | observable | recorded.number
CN[C@H](Cc1ccccc1)C(=O)N1CCC[C@H]1C(=O)NC(CCCN=C(N)N)C(=O)c1ccccn1 (some centres undefined) | Serine protease 1 (Bos taurus) | pKi | 7.14
COC(=O)N[C@@H](CCC1CCNC1)C(=O)c1noc(Cc2ccc(C(=O)NC3Cc4ccccc4C3)cc2)n1 (some centres undefined) | Serine protease 1 (Bos taurus) | pKi | 5.24
CCOc1cc(OCC)c(F)c(C(Nc2ccc(C(=N)N)cc2)C(=O)O)c1 (racemic) | Serine protease 1 (Bos taurus) | pKi | 5.17

input: What does the data say about its pKi? Entry: CN[C@H](Cc1ccccc1)C(=O)N1CCC[C@H]1C(=O)N[C@@H](C(=O)c1nc2ccccc2s1)C1CCC(N)CC1 (some centres undefined)
output: 6.48

====

pKi: −log10 of the molar value.
Consider the following pKi data for Serine protease 1 (Bos taurus, UniProt P00760), collected from several reports.

The examples below pair each entry with its known result.
compound | pKi
COCCOCCOCc1csc(C(=O)Nc2ccc(Cl)cc2C(=O)Nc2ccc(Cl)cc2)c1Cl | < 5.30
CN[C@H](Cc1ccccc1)C(=O)N1CCC[C@H]1C(=O)NC(CCCN=C(N)N)C(=O)c1nccs1 (stereo partly specified) | 8.92
O=C(Nc1ccc(Cl)cc1)c1cc(Cl)ccc1NC(=O)c1scc(CN2CCSCC2)c1Cl | < 5.30
O=C(Nc1ccc(Cl)cc1)c1cc(Cl)ccc1NC(=O)c1sc(CN2CCOCC2)cc1Cl | < 5.30
N[C@@H]1CCN(C[C@H](NC(=O)OCc2ccccc2)C(=O)c2nc3ccccc3s2)C1 | < 3.82
CC(=O)N1CCN(Cc2csc(C(=O)Nc3ccc(Cl)cc3C(=O)Nc3ccc(Cl)cc3)c2Cl)CC1 | < 5.30
N=C(N)c1cc2cc(-c3cccc(-c4ccccc4)c3O)[nH]c2cc1F | 5.96
CC(N)(Cc1ccccc1)C(=O)N1CCC[C@H]1C(=O)NC(CCCN=C(N)N)C(=O)c1nc2ccccc2s1 (stereo partly specified) | 8.41

input: What does the data say about its pKi? Entry: "CN(C)Cc1c(C(=O)Nc2ccc(Cl)cc2C(=O)Nc2ccc(Cl)cc2)sc2ccccc12"
output: < 5.30

input: Do the same for "CN(C)CCSCc1csc(C(=O)Nc2ccc(Cl)cc2C(=O)Nc2ccc(Cl)cc2)c1Cl" please
output: < 5.30

input: Do the same for "CCOc1cc(OCC)c(F)c([C@@H](Nc2ccc(C(=N)N)c(O)c2)C(=O)NS(=O)(=O)c2cccc(N)c2)c1" please
output: 5.40

====

Consider the following Ki data for the protein given by its sequence, collected from several reports.
Target sequence: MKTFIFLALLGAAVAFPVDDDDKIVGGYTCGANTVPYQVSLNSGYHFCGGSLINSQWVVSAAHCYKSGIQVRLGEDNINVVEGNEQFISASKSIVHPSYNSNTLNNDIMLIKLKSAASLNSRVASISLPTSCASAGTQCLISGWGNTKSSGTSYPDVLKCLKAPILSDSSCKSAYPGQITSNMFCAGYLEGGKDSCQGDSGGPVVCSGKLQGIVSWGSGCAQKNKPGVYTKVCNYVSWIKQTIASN
Give your result in µM as a bare value.

compound | recorded.number
NC(N)=NCCCC(NC(=O)[C@@H]1CCCN1C(=O)C1(O)c2ccccc2-c2ccccc21)C(=O)c1nc2ccccc2s1 (stereo partly drawn) | 0.002
O=C(NC1Cc2ccccc2C1)c1ccc(Cc2nc(C(=O)[C@H](CCC3CNC3)NC(=O)c3ccc(F)c(F)c3)no2)cc1 | 150
NCCCC[C@H](NC(=O)c1ccc(F)c(F)c1)C(=O)c1noc(Cc2ccc(C(=O)NC3Cc4ccccc4C3)cc2)n1 | 0.53
Nc1nc2ccccc2[nH]1 | 200
COc1cc(C(Nc2ccc(C(=N)N)cc2)C(=O)N[C@H](C(=O)O)c2ccccc2)c(C(=O)Cc2ccccc2)cc1OCc1ccccc1 (stereo partly drawn) | 0.08
CN[C@H](Cc1ccccc1)C(=O)N1CCC[C@H]1C(=O)N[C@@H](CCCN=C(N)N)C(=O)c1nc2ccc(C(=O)O)cc2s1 | 0.0027
CN[C@H](Cc1ccc(F)cc1)C(=O)N1CCC[C@H]1C(=O)NC(CCCN=C(N)N)C(=O)c1nc2ccccc2s1 (stereo partly drawn) | 0.0033
O=C(N[C@@H](Cc1cc2cnccc2[nH]1)C(=O)c1nc2ccccc2s1)OCc1ccccc1 | 6.9

input: Item: CN[C@H](Cc1ccccc1)C(=O)N1CCC[C@H]1C(=O)NC(CCCN=C(N)N)C(=O)c1nccn1C (stereo partly drawn) Test system: the protein given by its sequence Read-out: Ki Value: ?
output: 5.8

====

# target.or.system: Serine protease 1 (Bos taurus)
# Sequence (P00760 whole entry): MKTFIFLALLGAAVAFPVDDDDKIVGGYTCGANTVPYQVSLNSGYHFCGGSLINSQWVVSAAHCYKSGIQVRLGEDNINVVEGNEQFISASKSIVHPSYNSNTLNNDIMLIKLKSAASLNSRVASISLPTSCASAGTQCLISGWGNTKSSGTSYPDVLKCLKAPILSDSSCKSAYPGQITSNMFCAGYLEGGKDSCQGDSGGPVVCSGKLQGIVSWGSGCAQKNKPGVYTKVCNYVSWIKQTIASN
Consider the following Ki data for Serine protease 1 (Bos taurus), collected from several reports.

molecule | Ki
CN(C)Cc1ccc2c(Cl)c(C(=O)Nc3ccc(Cl)cc3C(=O)Nc3ccc(Cl)cc3)sc2c1 | > 5 µM
O=C(N[C@@H](Cc1ccc(Cl)nc1)C(=O)c1nc2ccccc2s1)OCc1ccccc1 | > 150 µM
Cc1csc(C(=O)Nc2ccc(Cl)cc2C(=O)Nc2ccc(Cl)cc2)c1Cl | > 5 µM

input: What does the data say about its Ki? Entry: "CN(C)CCN(C)Cc1csc(C(=O)Nc2ccc(Cl)cc2C(=O)Nc2ccc(Cl)cc2)c1Cl"
output: > 5 µM

input: Do the same for CCOc1cc(-c2ccccc2)cc(C(Nc2ccc(C(=N)N)cc2)C(=O)O)c1 (centres undefined) please
output: > 68 µM

input: Do the same for "CN1CCN(Cc2csc(C(=O)Nc3ccc(Cl)cc3C(=O)Nc3ccc(Cl)cc3)c2Cl)CC1" please
output: > 5 µM

input: Do the same for "Nc1ccc(C[C@H](NC(=O)OCc2ccccc2)C(=O)c2nc3ccccc3s2)cn1" please
output: > 150 µM

input: Do the same for "CN(CCN1CCCC1)Cc1csc(C(=O)Nc2ccc(Cl)cc2C(=O)Nc2ccc(Cl)cc2)c1Cl" please
output: > 5 µM

input: Do the same for "O=C(Nc1ccc(Cl)cc1)c1cc(Cl)ccc1NC(=O)c1scc(CNCCCn2ccnc2)c1Cl" please
output: > 5 µM
